Structures can show the parent of a compound that is named as a salt.
Value kind: melting point

[ask] Would you kindly share the measured melting point for COc1ccccc1N1CCN(C(=O)C2CC(=O)c3ccccc3C2)CC1 (centres unmarked) (as salt: hydrochloride) [Example 25, monohydrochloride] ?
[reply] 197 to 199 °C

[ask] I have this compound here, O=C1c2ccccc2CN1C1CCN(C(c2ccccc2)c2ccccc2)CC1 (as salt: hydrochloride) [Example 35, monohydrochloride] , and I need its recorded melting point.
[reply] 165 to 169 °C

[ask] Please report the recorded melting point for O=C1c2ccccc2CN1C1CCN(C/C=C/c2ccccc2Oc2ccccc2)CC1 (as salt: hydrochloride) [Example 20, monohydrochloride] .
[reply] 215 to 218 °C

[ask] Endpoint output: melting point of CCCCC(=CCN1CCC(N2Cc3ccccc3C2=O)CC1)CCCC (as salt: hydrochloride) [Example 32, monohydrochloride] . Value?
[reply] 147 to 152 °C

[ask] What measured melting point goes with O=C1c2ccccc2CN1C1CCN(CCCc2ccccc2Oc2ccccc2)CC1 (as salt: hydrochloride) [Example 34, monohydrochloride] ?
[reply] 199 to 202 °C

***
[ask] Fill blank: measured melting point of the compound CCCCC(CCCC)CCN1CCC(N2Cc3ccccc3C2=O)CC1 (as salt: hydrochloride) [Example 17, monohydrochloride] is ____.
[reply] 185 to 187 °C

[ask] Return reported melting point; argument: O=C1c2ccccc2CN1C1CCN(CCCc2ccccc2)CC1 (as salt: hydrochloride) [Example 14, monohydrochloride]
[reply] 229 to 231 °C

[ask] I have this compound here, COc1ccc(C(C(=O)NC2CCN(CCc3ccccc3)CC2)c2ccc(OC)cc2)cc1 (as salt: hydrochloride) [Example 29, monohydrochloride] , and I need its recorded melting point.
[reply] 180 to 182 °C

[ask] Can you look up the measured melting point of O=C1c2ccccc2CN1C1CCN(Cc2ccccc2)CC1 (as salt: hydrochloride) [Example 13, monohydrochloride] for me?
[reply] 271 to 274 °C

[ask] So what does the record say about melting point for `O=C(Cc1c[nH]c2ccccc12)NC1CCN(Cc2ccccc2)CC1` ?
[reply] 153 to 154 °C

[ask] Fill in the blank: the reported melting point of O=C1c2ccc(Cl)cc2CN1C1CCN(Cc2ccccc2)CC1 (as salt: hydrochloride) [Example 31, monohydrochloride] is ____.
[reply] 269 to 271 °C

* * *

Counter-ions that a name gives are not always drawn.
Value kind: melting point

[ask] I am curious: what melting point value has been reported for O=C(NC1CCN(CCC(c2ccccc2)c2ccccc2)CC1)c1ccccn1 (as salt: hydrochloride) [Example 40, monohydrochloride] ?
[reply] 109 to 116 °C

[ask] State the recorded melting point for this entry: O=C1c2ccccc2CN1C1CCN(CC=C(c2ccccc2)c2ccccc2)CC1 (as salt: hydrochloride) [Example 11, monohydrochloride]
[reply] 231 to 235 °C

[ask] Endpoint output: melting point of COc1ccccc1N1CCN(CC2CC(=O)c3ccc(F)cc3C2)CC1 (stereo not shown) . Value?
[reply] 111 to 113 °C

Proceed to the following item.
[ask] Given O=C1CC(CN2CCN(C(c3ccccc3)c3ccc(Cl)cc3)CC2)Cc2cc(F)ccc21 (stereo not shown) (as salt: hydrochloride) [Example 27, dihydrochloride] , state its recorded melting point.
[reply] 211 to 212 °C
